Experiment: chemical genetic growth profiling, strain panel (AID 1159580);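 note: tested at 20 µM; growth read once vehicle control cultures reached saturation at 30 °C; 1 = growth at the plate median or of vehicle wells; lower values mean less growth of the strain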
Conditions: S. cerevisiae deletion strains, growth OD, locus YDR001C, strain nth1, hits give low values
In all, about 5,500 compounds went through this assay and about 2,000 (36%) were called active. Roughly 18% stayed inconclusive and do not appear here. Some of the results follow.
Each record here notes measured normalized growth.
metric_name: normalized growth

compound: O=C(O)C1=CCCNC1
test_value: 0.99

compound: CCOC(=O)NNc1nncc2ccccc12
test_value: 1.01

compound: COc1ccccc1OCC(O)CO (stereo unspecified)
test_value: 1.02

compound: CN1CCN(C(=O)OC2c3nccnc3C(=O)N2c2ccc(Cl)cn2)CC1 (stereo unspecified)
test_value: 0.992

compound: CC(C)CCCC(C)[C@H]1CCC2C3CC=C4C[C@@H](O)CC[C@]4(C)C3CC[C@@]21C (stereo partly specified)
test_value: 0.981

compound: CC(C)CCCC(C)C1CCC2C3=CC[C@H]4C[C@@H](O)CC[C@]4(C)C3CC[C@@]21C (stereo partly specified)
test_value: 0.985

====

Experiment: chemical genetic growth profiling, strain panel (AID 1159580);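 note: tested at 20 µM; growth read once vehicle control cultures reached saturation at 30 °C; 1 = growth at the plate median or of vehicle wells; lower values mean less growth of the strain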
Conditions: S. cerevisiae deletion strains, growth OD, locus YDL035C, strain GPR1, hits give low values
About 2,000 (36%) of roughly 5,500 compounds were called active. Inconclusive results (about 18%) are left out. The list shows a part of the results.

molecule: CCC(C)[C@H]1O[C@]2(C=C[C@@H]1C)C[C@@H]1C[C@@H](C/C=C(\C)[C@@H](OC3C[C@H](OC)C(O[C@H]4C[C@H](OC)[C@@H](O)[C@H](C)O4)[C@H](C)O3)[C@@H](C)/C=C/C=C3\CO[C@@H]4[C@H](O)C(C)=C[C@@H](C(=O)O1)[C@]34O)O2 (some centres undefined)
normalized growth: 0.847

molecule: O=C1NC(O)=NC1(c1ccccc1)c1ccccc1
normalized growth: 1.01

molecule: NC(=O)NC(=O)Cc1ccccc1
normalized growth: 1.02

molecule: CC(C)c1ccc2c(c1)CCC1[C@](C)(CN)CCC[C@]21C (some centres undefined)
normalized growth: 0.253

====

Assay: chemical genetic growth profiling, strain panel (AID 1159580);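 note: tested at 20 µM; growth read once vehicle control cultures reached saturation at 30 °C; 1 = growth at the plate median or of vehicle wells; lower values mean less growth of the strain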
Settings: S. cerevisiae deletion strains, growth OD, locus YJR043C, strain POL32, hits give low values
In all, about 5,500 compounds went through this assay and about 2,000 (36%) were called active. Not shown: some 18% with an inconclusive outcome. The list shows a part of the results.

molecule: Cc1cc(=O)[nH]c(=S)[nH]1
normalized growth: 1.02

molecule: CCCc1c(OCCCCc2nn[nH]n2)ccc(C(C)=O)c1O
normalized growth: 0.984

molecule: CC(C)=CCc1c2c(c3occ(-c4ccc(O)c(O)c4)c(=O)c3c1O)C=CC(C)(C)O2
normalized growth: 0.255

molecule: COC(OC)c1cc(=O)[nH]c(=S)[nH]1
normalized growth: 1.01

molecule: Cc1cc(=O)oc2cc(O)c(O)cc12
normalized growth: 0.964

molecule: COCc1cc(=O)n2[nH]c(C(C)(C)C)cc2n1
normalized growth: 1.04

molecule: O=C(O)CSC1CCS(=O)(=O)C1 (stereo not given)
normalized growth: 1

molecule: CN(C)C(=O)Oc1cccc([N+](C)(C)C)c1
normalized growth: 1.02

molecule: CCOC(=O)c1ccc(NC(N)=S)cc1
normalized growth: 0.997

molecule: Oc1c(Cl)cc(Cl)cc1Sc1cc(Cl)cc(Cl)c1O
normalized growth: 1.05

molecule: CCOC(=O)NNc1nncc2ccccc12
normalized growth: 0.952

molecule: COc1ccccc1OCC(O)CO (stereo not given)
normalized growth: 1.01

molecule: CC1=CC(=O)c2ccccc2C1=O
normalized growth: 0.0645

molecule: CC(C)CCCC(C)C1CC[C@@]2(C)C3=C(CC[C@]12C)[C@@]1(C)CC[C@H](O)C(C)(C)C1CC3 (stereo not given in full)
normalized growth: 0.987

molecule: CCCCCCc1cc2c(C)cc(=O)oc2cc1O
normalized growth: 1.03

molecule: CC(C)CC1NC(=O)CNC1=O (stereo not given)
normalized growth: 0.977

molecule: C[C@H](CCC(=O)O)[C@H]1CCC2C3C(=O)CC4CC(=O)CC[C@]4(C)C3CC(=O)[C@@]21C (stereo not given in full)
normalized growth: 1.01

molecule: CCCc1cc(=O)oc2c1c(C)nn2-c1ccccc1
normalized growth: 0.998

molecule: COC(=O)/C(=C1\OC(=O)C(c2ccccc2)=C1O)c1ccccc1
normalized growth: 1.02

molecule: CCCc1cc(=O)[nH]c(=S)[nH]1
normalized growth: 1

molecule: O=C(O)CCCNCc1cccc2ccccc12
normalized growth: 1.01

molecule: NNC(=S)Nc1ccc2c(c1)OCCO2
normalized growth: 1

molecule: CC12CCC(=O)C=C1CCC1C2[C@@H](O)CC2(C)C1CC[C@]2(O)C(=O)COP(=O)(O)O (stereo not given in full)
normalized growth: 1.02

molecule: CC(CCC(=O)O)[C@H]1CCC2C3CC[C@@H]4CC(=O)CC[C@]4(C)C3C=C[C@@]21C (stereo not given in full)
normalized growth: 0.985

molecule: CN(C)[C@@H]1C(=O)C(C(N)=O)=C(O)[C@@]2(O)C(=O)C3=C(O)c4c(O)ccc(Cl)c4[C@@](C)(O)[C@H]3C[C@@H]12
normalized growth: 0.971
